- SYSTEM: Cyclin-dependent kinase 4/cyclin D1 (Homo sapiens, UniProt P11802)
- Sequence (P11802 whole entry): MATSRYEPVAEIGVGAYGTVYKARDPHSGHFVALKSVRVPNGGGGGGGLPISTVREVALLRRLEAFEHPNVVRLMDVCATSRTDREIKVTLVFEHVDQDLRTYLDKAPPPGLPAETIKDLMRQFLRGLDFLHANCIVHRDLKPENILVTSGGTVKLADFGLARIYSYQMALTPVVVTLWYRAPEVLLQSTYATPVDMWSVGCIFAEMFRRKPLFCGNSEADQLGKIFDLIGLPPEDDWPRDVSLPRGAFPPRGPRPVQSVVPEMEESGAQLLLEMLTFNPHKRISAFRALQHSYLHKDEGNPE
- Sequence (P24385 whole entry, further chain): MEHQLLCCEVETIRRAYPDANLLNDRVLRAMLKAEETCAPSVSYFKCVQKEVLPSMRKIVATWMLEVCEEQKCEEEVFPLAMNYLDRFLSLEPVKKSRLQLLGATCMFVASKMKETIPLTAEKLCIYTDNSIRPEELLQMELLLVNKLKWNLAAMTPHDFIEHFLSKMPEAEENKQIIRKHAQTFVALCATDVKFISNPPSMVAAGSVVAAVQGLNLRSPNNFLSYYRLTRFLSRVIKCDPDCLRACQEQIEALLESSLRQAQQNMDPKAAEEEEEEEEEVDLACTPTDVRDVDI
- MEASUREMENT_DESCRIPTION: Inhibition of Cyclin-dependent kinase 4-cyclin D1
- Format: protein-complex assay
Quick reference for pIC50 among some compounds
Reminder that pIC50 is minus the log10 of a molar concentration.

Worked cases, pIC50 given:
{"COMPOUND_STRING": "CCc1nn(-c2c(Cl)cc(Cl)cc2Cl)c2nc(Cc3cccc(N)c3)[nH]c(=O)c12", "pIC50": 5.54}
{"COMPOUND_STRING": "CSc1nn(-c2c(Cl)cc(Cl)cc2Cl)c2nc(-c3ccco3)[nH]c(=O)c12", "pIC50": 4.44}

Could you now consider this next compound?
Query: Endpoint output: pIC50 of "CSc1nn(-c2c(Cl)cc(Cl)cc2Cl)c2nc(Cc3cccs3)[nH]c(=O)c12" . Value?
Response: 4.70

###

- Tested on: HCT-116
- MEASUREMENT_DESCRIPTION: Concentration required for growth inhibition of human colon carcinoma cell line HCT116
- Format: functional, cell-based
Quick reference for IC50 among some molecules
Your answer is read as nM, so omit the unit and give the number.

Worked cases, IC50 given:
{"MOLECULE": "CSc1nn(-c2c(Cl)cc(Cl)cc2Cl)c2nc(C)[nH]c(=O)c12", "SYSTEM": "HCT-116", "UNIT_OF_MEASURE": "nM", "IC50": 2500}
{"MOLECULE": "CN[C@@H]1C[C@H]2O[C@@](C)([C@@H]1OC)n1c3ccccc3c3c4c(c5c6ccccc6n2c5c31)C(=O)NC4", "SYSTEM": "HCT-116", "UNIT_OF_MEASURE": "nM", "IC50": 6}

Could you now consider this next molecule?
Query: Endpoint output: IC50 of CN1CCC(c2c(O)cc(O)c3c(=O)cc(-c4ccccc4Cl)oc23)[C@@H](O)C1 (mixture of isomers) . Value?
Response: 490

###

- SYSTEM: Cyclin-dependent kinase 4/cyclin D1 (Homo sapiens, UniProt P11802)
- MEASUREMENT_DESCRIPTION: Inhibition of Cyclin-dependent kinase 4/cyclin D1
- Format: protein-complex assay
MEASURED_PROPERTY: IC50 (nM)
Your answer is read as nM, so omit the unit and give the number.

Query: Endpoint output: IC50 of "CSc1nn(-c2c(Cl)cc(Cl)cc2Cl)c2nc(C)[nH]c(=O)c12" . Value?
Response: 2100

###

- SYSTEM: Cyclin-dependent kinase 2/cyclin E (Homo sapiens)
pIC50: −log10 of the molar value.
Hi, to clarify the labels: Yes covers pIC50 from 7 upward, No covers anything below 7.

{"COMPOUND_STRING": "CCc1nn(-c2c(Cl)cc(Cl)cc2Cl)c2nc(Cc3cccc(O)c3)[nH]c(=O)c12", "CLASSIFICATION": "Yes"}
{"COMPOUND_STRING": "C=Cc1nc2c(c(CC)nn2-c2c(Cl)cc(Cl)cc2Cl)c(=O)[nH]1", "CLASSIFICATION": "No"}
{"COMPOUND_STRING": "CCc1nn(-c2c(Cl)cc(Cl)cc2Cl)c2nc(CCCCO)[nH]c(=O)c12", "CLASSIFICATION": "No"}
{"COMPOUND_STRING": "CCc1nn(-c2c(Cl)cc(Cl)cc2Cl)c2nc(Cc3cccc(OC)c3)[nH]c(=O)c12", "CLASSIFICATION": "Yes"}

Query: Determine whether measured pIC50 meets or exceeds 7 for "CCc1nn(-c2c(Cl)cc(Cl)cc2Cl)c2nc(C)n(C)c(=O)c12"
Response: No

Query: Here is the next molecule: "CCc1nn(-c2c(Cl)cc(Cl)cc2Cl)c2nc(Cc3ccc(O)c(C)c3)[nH]c(=O)c12"
Response: Yes

Query: Here is the next molecule: "CCc1nn(-c2c(Cl)cc(Cl)cc2Cl)c2nc(Cc3ccc(N(C)C)cc3)[nH]c(=O)c12"
Response: Yes
